protocol: Panel test of lowering iron taste and/or smell of aqueous bivalent iron ion solution
Set-up: key: “Not effective (symbol “−”)” meaning of that the test aqueous solution showed no difference in iron taste and/or smell from that the control aqueous solution; “Slightly effective (symbol “+”)”, the test aqueous solution showes weaker iron taste and/or smell than the control aqueous solution but the deference was not significant; “Effective (symbol “++”)”, the test aqueous solution showed a slight iron taste and/or smell but it was significantly weaker than that of the control aqueous solution; “Strongly effective (symbol “+++”)”, the test aqueous solution showed almost no iron taste and/or smell
test context: saccharide 1.0%; 5 mg bivalent iron per 100 ml; 12 panels
property label: Effect on lowering iron taste and/or smell

compound: OC[C@H]1O[C@H](O[C@H]2O[C@H](CO)[C@@H](O[C@H]3O[C@H](CO)[C@@H](O[C@H]4O[C@H](CO)[C@@H](O)[C@H](O)[C@H]4O)[C@H](O)[C@H]3O)[C@H](O)[C@H]2O)[C@H](O)[C@@H](O)[C@@H]1O [α-Maltosyl α,α-trehalose, α-maltosyl α,α-trehalose]
value observed: +

compound: OC[C@H]1O[C@H](O[C@H]2O[C@H](CO)[C@@H](O)[C@H](O)[C@H]2O)[C@H](O)[C@@H](O)[C@@H]1O [α,α-Trehalose, α,α-trehalose]
value observed: −

compound: OC[C@H]1O[C@@](CO)(O[C@H]2O[C@H](CO)[C@@H](O)[C@H](O)[C@H]2O)[C@@H](O)[C@@H]1O [Sucrose, sucrose]
value observed: −

compound: OC[C@H]1O[C@H](O[C@H]2[C@H](O)[C@@H](O)C(O)O[C@@H]2CO)[C@H](O)[C@@H](O)[C@@H]1O (mixture of isomers) [Maltose, maltose]
value observed: −

Challenge: Dear colleague, please send me the reported Effect on lowering iron taste and/or smell for OC[C@H]1O[C@H](O[C@H]2O[C@H](CO)[C@@H](O[C@H]3O[C@H](CO)[C@@H](O)[C@H](O)[C@H]3O)[C@H](O)[C@H]2O)[C@H](O)[C@@H](O)[C@@H]1O [α-Glucosyl α,α-trehalose, α-glucosyl α,α-trehalose] when you can.
Response given: +

====

protocol: Panel test of lowering iron taste and/or smell of aqueous bivalent iron ion solution
Parameters: key: “Not effective (symbol “−”)” meaning of that the test aqueous solution showed no difference in iron taste and/or smell from that the control aqueous solution; “Slightly effective (symbol “+”)”, the test aqueous solution showes weaker iron taste and/or smell than the control aqueous solution but the deference was not significant; “Effective (symbol “++”)”, the test aqueous solution showed a slight iron taste and/or smell but it was significantly weaker than that of the control aqueous solution; “Strongly effective (symbol “+++”)”, the test aqueous solution showed almost no iron taste and/or smell
test context: saccharide 5.0%; 5 mg bivalent iron per 100 ml; 12 panels
Experimental: To confirm the effect of various saccharides on inhibiting taste and/or smell of bivalent iron ion, the following experiment was carried out. An aqueous solution containing bivalent iron ion was prepared by dissolving 0.05556 part by weight of ammonium ferric citrate (iron content of about 18%), and 0.1 part by weight of ascorbic acid in 100 parts by weight of deionized water. […]
property label: Effect on lowering iron taste and/or smell

Here are 4 compounds together with their reported answers.
compound: OC[C@H]1O[C@H](O[C@H]2[C@H](O)[C@@H](O)C(O)O[C@@H]2CO)[C@H](O)[C@@H](O)[C@@H]1O (mixture of isomers) [Maltose, maltose]
value observed: +
//
compound: OC[C@H]1O[C@H](O[C@H]2O[C@H](CO)[C@@H](O)[C@H](O)[C@H]2O)[C@H](O)[C@@H](O)[C@@H]1O [α,α-Trehalose, α,α-trehalose]
value observed: ++
//
compound: OC[C@H]1O[C@@](CO)(O[C@H]2O[C@H](CO)[C@@H](O)[C@H](O)[C@H]2O)[C@@H](O)[C@@H]1O [Sucrose, sucrose]
value observed: −
//
compound: OC[C@H]1O[C@H](O[C@H]2O[C@H](CO)[C@@H](O[C@H]3O[C@H](CO)[C@@H](O[C@H]4O[C@H](CO)[C@@H](O)[C@H](O)[C@H]4O)[C@H](O)[C@H]3O)[C@H](O)[C@H]2O)[C@H](O)[C@@H](O)[C@@H]1O [α-Maltosyl α,α-trehalose, α-maltosyl α,α-trehalose]
value observed: +++

Challenge: Dear colleague, please send me the reported Effect on lowering iron taste and/or smell for OC[C@H]1O[C@H](O[C@H]2O[C@H](CO)[C@@H](O[C@H]3O[C@H](CO)[C@@H](O)[C@H](O)[C@H]3O)[C@H](O)[C@H]2O)[C@H](O)[C@@H](O)[C@@H]1O [α-Glucosyl α,α-trehalose, α-glucosyl α,α-trehalose] when you can.
Response given: +++
